Tested on: LG0703-F498-PDC complex spheroid growth;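 also: luminescence taken as a proxy for viable cell amount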
Test: Anticancer human tumor LG0703-F498-PDC patient-derived lung adenocarcinoma cell line growth inhibition [AhR]
Details: second compound 1 µM; first compound 3.16 µM; stronger effect = lower value
Mark Condition met only for viability, T/C values smaller than 60%; exact matches and larger values are Condition not met.

Check if viability, T/C falls below 60% for Nc1ccn(C2OC(CO)C(O)C2(F)F)c(=O)n1 (stereo not given) + Cc1cncc(-c2nc(NCCc3c[nH]c4ccccc34)c3ncn(C(C)C)c3n2)c1 . Condition met

Item COc1cc(Nc2ncc3c(n2)-c2ccc(Cl)cc2C(c2c(F)cccc2OC)=NC3)ccc1C(=O)O + CC(CO)NC(=O)c1cc(-c2ccc(Cl)cc2)nn(-c2cnn(C)c2)c1=O : viability, T/C beneath 60%, strictly? Condition met

Does the reported viability, T/C of CC(C)c1c(-c2ccccc2)nc2c(C#N)c[nH]n2c1=O + Cc1cncc(-c2nc(NCCc3c[nH]c4ccccc34)c3ncn(C(C)C)c3n2)c1 stay below 60%? Condition not met

viability, T/C strictly < 60% for this compound? COc1cc(C2c3cc4c(cc3C(OC3OC5COC(C)OC5C(O)C3O)C3COC(=O)C23)OCO4)cc(OC)c1O (stereo not given) + CC(CO)NC(=O)c1cc(-c2ccc(Cl)cc2)nn(-c2cnn(C)c2)c1=O Condition not met

Say whether its viability, T/C is strictly beneath 60%. Entry: CC1(C)CCC(CN2CCN(c3ccc(C(=O)NS(=O)(=O)c4ccc(NCC5CCOCC5)c([N+](=O)[O-])c4)c(Oc4cnc5[nH]ccc5c4)c3)CC2)=C(c2ccc(Cl)cc2)C1 + CC(CO)NC(=O)c1cc(-c2ccc(Cl)cc2)nn(-c2cnn(C)c2)c1=O Condition not met

Where these numbers come from: PubChem BioAssay AID1919013
